# measurement-protocol: dry Sympatec PSD analysis (particle size distribution)
# Assay type: physicochemical
# particulars: dry Sympatec PSD; after isolation / pre-storage sample
Overview of reported Particle Size, cumulative distribution Q3 X50 across a group of molecules:
Write the quantity with the unit trailing the number.

molecule | experimental-value
CCC(=O)OCC(=O)[C@@]1(OC(=O)CC)[C@@H](C)C[C@H]2[C@@H]3CCC4=CC(=O)C=C[C@]4(C)[C@@]3(Cl)[C@@H](O)C[C@@]21C [Comparative Example 2] | 3.58 μ
CCC(=O)OCC(=O)[C@@]1(OC(=O)CC)[C@@H](C)C[C@H]2[C@@H]3CCC4=CC(=O)C=C[C@]4(C)[C@@]3(Cl)[C@@H](O)C[C@@]21C [anhydrous BDP, anhydrous beclomethasone diproprionate] | 1.10 μ

Data request, read-out Particle Size, cumulative distribution Q3 X50, for CCC(=O)OCC(=O)[C@@]1(OC(=O)CC)[C@@H](C)C[C@H]2[C@@H]3CCC4=CC(=O)C=C[C@]4(C)[C@@]3(Cl)[C@@H](O)C[C@@]21C.O [BDP hydrate]
1.35 μ

// query: CCC(=O)OCC(=O)[C@@]1(OC(=O)CC)[C@@H](C)C[C@H]2[C@@H]3CCC4=CC(=O)C=C[C@]4(C)[C@@]3(Cl)[C@@H](O)C[C@@]21C [Comparative Example 1]
12.58 μ
